FYI, the data here is from the Human Domainome abundance scans (Beltran et al. 2025).

B1: Lysine-specific demethylase 2B, residues 656 to 722; numbered along this chain, Q8NHM5 (parent)
chain: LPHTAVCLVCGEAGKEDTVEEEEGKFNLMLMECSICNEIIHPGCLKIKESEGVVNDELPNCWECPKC

variants of: B1; test: abundance fitness (aPCA) (normalised: wild type 0, dead -1); higher = more abundant; growth selection in yeast, the domain comes from the species named; details: Homo sapiens
Each record's abundance fitness is compared with low: < -0.2; mid: ≥ -0.2 and < -0.003; high: ≥ -0.003 to give its class.

Q: Assign a category based on measured abundance fitness for E21K and give only the class name.
Ans: high

Q: Each variant maps to one class by abundance fitness. Which class for A5E ?
Ans: low

Q: Category of N37E , please.
Ans: high

Q: # bin lookup: classify E20G by its abundance fitness
Ans: high

Q: Band for the recorded abundance fitness of I47S ?
Ans: high

Q: Could you tell me which band N37C belongs to?
Ans: high

Q: Sort V53S into one of the categories.
Ans: high

Q: Class label required: V19M
Ans: mid

Q: Determine which band this variant sits in: A13T
Ans: mid

Q: Given C36I , name the class its abundance fitness places it in.
Ans: low

Q: Kindly identify the class of E12R .
Ans: mid

Q: Dear colleague, I would appreciate it if you could identify the bin for G14M and reply at your convenience.
Ans: mid

Q: Class (by measured abundance fitness) for V9T
Ans: high

Q: Looking at G24E , which class would you pick?
Ans: high

Q: Field: class (abundance fitness) — entry: E51M
Ans: mid

Q: Exam item: assign G11F to the correct category.
Ans: mid

Q: Lab note: which band did G24N land in?
Ans: high

Q: Category of D17V , please.
Ans: mid

Q: For M29I , which abundance fitness bin applies?
Ans: low

Q: Lab note: which band did P2R land in?
Ans: high

Q: Would you mind sorting C67A into the appropriate category?
Ans: low

Q: Which abundance fitness category applies to E22D here?
Ans: mid

Q: Kindly state the category for this variant: E22I
Ans: mid

Q: Bin? A13V
Ans: high

Q: Consider L8M . To which abundance fitness class does it belong?
Ans: high

Q: // return the class label for V9W
Ans: low

Q: Using the reported abundance fitness, which band applies to E23G ?
Ans: high

Q: Lab note: sort G43C into the matching abundance fitness band.
Ans: low

Q: Hello team, could you let me know which band the following variant falls into: N60G
Ans: mid

Q: Assign a category based on measured abundance fitness for L1R and give only the class name.
Ans: mid

Q: Input H3Q ; output its category
Ans: mid

Q: Into which category would you place E57G ?
Ans: mid

Q: Assign a category based on measured abundance fitness for A5Q and give only the class name.
Ans: mid

Q: Class? Entry: C36T
Ans: low

Q: Which band does E12M fall in?
Ans: high

Q: Dear colleague, I would appreciate it if you could identify the bin for G52K and reply at your convenience.
Ans: mid

Q: Which category does the recorded abundance fitness put C64K in?
Ans: low

Q: Sort into band: L45M
Ans: high

Q: Which bin, given its abundance fitness, does N37M occupy?
Ans: mid

Q: Category of N37Q , please.
Ans: high

Q: Form: Item = C7D ; Class = ?
Ans: low

Q: Form field 'band' for C61L
Ans: mid

Q: Each variant maps to one class by abundance fitness. Which class for H3L ?
Ans: high

Q: Which abundance fitness band matches E38I ?
Ans: mid

Q: Which abundance fitness category applies to C36E here?
Ans: low

Q: Entry T4S belongs to which category?
Ans: low

Q: Form field 'band' for V53R
Ans: mid

Q: Class for P42V ?
Ans: low

Q: Could you place D17F in its proper category? Many thanks.
Ans: mid

Q: # bin label for A5S
Ans: mid

Q: Which category fits this record: E38F
Ans: low

Q: Which bin, given its abundance fitness, does C33N occupy?
Ans: low

Q: Class (by measured abundance fitness) for C61P
Ans: mid

Q: Hi there! Could you help me figure out the category for C64V please?
Ans: low

Q: Class (by measured abundance fitness) for P42D
Ans: low

Q: Please let me know in which category the item C61A belongs.
Ans: high

Q: Please indicate the class for H3C based on its abundance fitness.
Ans: low

Q: Which bin, given its abundance fitness, does L58C occupy?
Ans: high

Q: Lab note: which band did L1F land in?
Ans: high

Q: Returns: class label. Input: C61R
Ans: high

Q: Please report the category associated with H3Y , nothing else.
Ans: low

Q: Which band does T4M fall in?
Ans: low

Q: Exercise: read the entry S34Q and state which class it falls under.
Ans: high

Q: Class label required: L1T
Ans: high

Q: Note: place this variant into its band. Item: E20L
Ans: mid

Q: Each variant maps to one class by abundance fitness. Which class for K46Q ?
Ans: high

Q: Which class is correct for the following variant? H3M
Ans: high

Q: Hi there! Could you help me figure out the category for K25H please?
Ans: low

Q: Any idea which band H41W is in?
Ans: low

Q: # bin label for H41A
Ans: low

Q: Kindly identify the class of K15M .
Ans: high

Q: State the band of G24I
Ans: mid

Q: Band of E23A ?
Ans: high

Q: Hello team, could you let me know which band the following variant falls into: K48W
Ans: mid

Q: Dear colleague, I would appreciate it if you could identify the bin for D56M and reply at your convenience.
Ans: high

Q: Please indicate the class for E51H based on its abundance fitness.
Ans: high

Q: # bin lookup: classify E63L by its abundance fitness
Ans: mid

Q: # bin lookup: classify E63N by its abundance fitness
Ans: low

Q: // return the class label for A13W
Ans: low

Q: Lab note: which band did E12W land in?
Ans: low

Q: State the band of I39K
Ans: mid

Q: State the class of the variant shown: M29C
Ans: mid

Q: Assign a category based on measured abundance fitness for V54T and give only the class name.
Ans: high

Q: Exam item: assign E49M to the correct category.
Ans: mid

Q: Dear colleague, I would appreciate it if you could identify the bin for D56Q and reply at your convenience.
Ans: mid

Q: Which band does C10E fall in?
Ans: low

Q: Each variant maps to one class by abundance fitness. Which class for G52T ?
Ans: mid

Q: Quick check: band for I39P
Ans: mid
